Recorded values, source ChEMBL document CHEMBL4680356.

Target: TP53-binding protein 1 (Homo sapiens, UniProt Q12888)
Sequence (Q12888 whole entry, the tested form may be a part): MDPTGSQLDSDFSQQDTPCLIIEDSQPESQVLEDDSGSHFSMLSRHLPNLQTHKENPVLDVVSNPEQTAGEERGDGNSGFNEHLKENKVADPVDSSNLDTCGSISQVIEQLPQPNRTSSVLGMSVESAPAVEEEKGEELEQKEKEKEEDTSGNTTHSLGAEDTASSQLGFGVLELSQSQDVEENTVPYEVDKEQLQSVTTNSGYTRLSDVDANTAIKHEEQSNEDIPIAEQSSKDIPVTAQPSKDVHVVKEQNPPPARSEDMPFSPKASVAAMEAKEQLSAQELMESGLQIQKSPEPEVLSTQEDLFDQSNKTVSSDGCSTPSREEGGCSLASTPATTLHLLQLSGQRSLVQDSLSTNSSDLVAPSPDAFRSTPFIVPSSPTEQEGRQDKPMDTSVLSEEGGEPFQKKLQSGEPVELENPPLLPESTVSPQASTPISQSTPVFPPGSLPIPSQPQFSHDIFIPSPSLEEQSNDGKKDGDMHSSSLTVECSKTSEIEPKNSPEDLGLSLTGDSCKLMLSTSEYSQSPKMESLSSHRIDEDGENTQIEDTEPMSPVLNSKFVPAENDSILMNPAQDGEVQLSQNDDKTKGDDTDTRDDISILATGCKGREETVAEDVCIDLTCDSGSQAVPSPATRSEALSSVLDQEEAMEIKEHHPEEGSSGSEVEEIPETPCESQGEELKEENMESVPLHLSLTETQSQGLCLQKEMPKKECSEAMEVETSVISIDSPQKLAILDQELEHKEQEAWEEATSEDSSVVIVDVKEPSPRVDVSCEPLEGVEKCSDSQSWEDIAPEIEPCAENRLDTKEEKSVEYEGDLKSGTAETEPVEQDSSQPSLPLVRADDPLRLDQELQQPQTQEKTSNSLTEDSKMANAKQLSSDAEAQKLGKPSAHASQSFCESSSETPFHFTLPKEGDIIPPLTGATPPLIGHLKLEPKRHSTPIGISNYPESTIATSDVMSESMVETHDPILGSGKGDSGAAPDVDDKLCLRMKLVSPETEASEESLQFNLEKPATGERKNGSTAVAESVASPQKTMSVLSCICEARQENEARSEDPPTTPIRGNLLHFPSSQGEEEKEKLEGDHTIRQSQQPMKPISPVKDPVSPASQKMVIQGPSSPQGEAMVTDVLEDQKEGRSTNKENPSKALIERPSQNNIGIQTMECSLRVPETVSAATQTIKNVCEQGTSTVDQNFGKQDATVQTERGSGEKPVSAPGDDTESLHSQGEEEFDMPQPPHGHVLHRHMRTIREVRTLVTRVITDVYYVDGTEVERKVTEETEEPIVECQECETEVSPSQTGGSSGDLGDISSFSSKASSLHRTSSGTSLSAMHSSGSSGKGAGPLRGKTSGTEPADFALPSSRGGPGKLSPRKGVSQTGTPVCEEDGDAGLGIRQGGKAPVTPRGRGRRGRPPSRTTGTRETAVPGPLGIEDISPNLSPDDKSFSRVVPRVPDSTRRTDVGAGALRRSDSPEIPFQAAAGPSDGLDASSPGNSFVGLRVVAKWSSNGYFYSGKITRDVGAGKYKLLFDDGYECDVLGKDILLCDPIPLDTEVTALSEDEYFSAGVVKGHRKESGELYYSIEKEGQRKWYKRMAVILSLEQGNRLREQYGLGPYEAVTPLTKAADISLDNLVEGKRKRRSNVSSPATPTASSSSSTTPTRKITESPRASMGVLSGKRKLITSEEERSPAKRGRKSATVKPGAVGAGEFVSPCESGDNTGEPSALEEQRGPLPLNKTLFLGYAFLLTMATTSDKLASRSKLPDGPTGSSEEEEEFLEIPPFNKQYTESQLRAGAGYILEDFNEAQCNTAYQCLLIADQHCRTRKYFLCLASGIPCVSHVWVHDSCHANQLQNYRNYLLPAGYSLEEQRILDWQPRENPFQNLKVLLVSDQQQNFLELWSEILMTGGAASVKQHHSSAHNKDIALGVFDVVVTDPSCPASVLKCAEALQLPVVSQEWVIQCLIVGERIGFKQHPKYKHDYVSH
Test: Inhibition of recombinant human N-terminal His6-tagged 53BP1 TTD (1484 to1603 residues) expressed in Escherichia coli BL21 (DE3) cells using Biotin-H4K2Ome2 as substrate preincubated for 30 mins followed by substrate addition and measured after 30 mins by AlphaScreen assay
Give pIC50 for every item shown.
Scale note: pIC50 = -log10(concentration in M).

[Q] Give the reported pIC50 for CCN(CC)c1cc(C)c2cc(N(C)C(=O)/C=C/c3ccco3)ccc2n1 (system: TP53-binding protein 1 (Homo sapiens, UniProt Q12888)).
[A] 4.75

[Q] Notebook: pull reported pIC50 for TP53-binding protein 1 (Homo sapiens, UniProt Q12888), entry Cc1cc(N(C)C)nc2ccc(NC(=O)/C=C/c3ccco3)cc12
[A] 5.38

[Q] Query for TP53-binding protein 1 (Homo sapiens, UniProt Q12888): what pIC50 does the record show for CCN(CC)c1cc(C)c2cc(NC(=O)/C=C/c3ccco3)ccc2n1 ?
[A] 5.77

[Q] Could you share what pIC50 was measured for Cc1cc2cc(NC(=O)/C=C/c3ccco3)ccc2[nH]1 , tested on TP53-binding protein 1 (Homo sapiens, UniProt Q12888)?
[A] 4.65

[Q] Recall the recorded pIC50 for CCN(CC)c1cc(C)c2cc(NC(=O)/C=C/c3ccccn3)ccc2n1 with TP53-binding protein 1 (Homo sapiens, UniProt Q12888) and state it.
[A] 4.50

[Q] GET /values?readout=pIC50&system=TP53-binding protein 1 (Homo sapiens, UniProt Q12888)&item= Cc1cc(N2CCCCC2)nc2ccc(NC(=O)/C=C/c3ccco3)cc12
[A] 4.82

* * *

Target: TP53-binding protein 1 (Homo sapiens, UniProt Q12888)
Test: Binding affinity to recombinant human N-terminal His6-tagged lysine dye- labeled 53BP1 TTD (1484 to1603 residues) expressed in Escherichia coli BL21 (DE3) cells incubated for 10 mins by MST assay
value.kind: pKd
Please treat pKd as minus the base-10 logarithm of the molar concentration.

[Q] Fill in: pKd of CCN(CC)c1cc(C)c2cc(NC(=O)/C=C/c3ccco3)ccc2n1 is ___
[A] 5.57

* * *

Biological target: TP53-binding protein 1 (Homo sapiens, UniProt Q12888)
Experiment: Inhibition of recombinant human N-terminal His6-tagged 53BP1 TTD (1484 to1603 residues) expressed in Escherichia coli BL21 (DE3) cells using Biotin-H4K2Ome2 as substrate preincubated for 30 mins followed by substrate addition and measured after 30 mins by AlphaScreen assay
pIC50: −log10 of the molar value.
Kindly state pIC50 for each of the entries shown.

[Q] Lab note: need pIC50 with TP53-binding protein 1 (Homo sapiens, UniProt Q12888) for entry O=C(/C=C/c1ccco1)Nc1cccc2ncccc12 , please look it up.
[A] < 4.30

[Q] Give the reported pIC50 for CN(C)c1ccc2cc(NC(=O)/C=C/c3cccc4cccnc34)ccc2n1 (system: TP53-binding protein 1 (Homo sapiens, UniProt Q12888)).
[A] < 4.30

[Q] Give TP53-binding protein 1 (Homo sapiens, UniProt Q12888) pIC50 for CCN(CC)c1cc(C)c2cc(NC(=O)/C=C/c3ccc4ccoc4c3)ccc2n1
[A] < 4.30
